Tested on: MDR1
assay summary: in vitro
experimental conditions: dog, MDCK-MDR1, pH 7.4, MDCK-MDR1: Papp B-A (10^−6, cm/s)
Assignment: determine reported Papp B→A at 120 min, 5 μM for the given compounds.
One number for each entry, in ×10⁻⁶ cm/s.

// known answers, use as guide
[
  {
    "compound": "C[C@@]12CC[C@@](C)(N1)[C@@H](F)[C@@H](Oc1cnc(-c3ccc(-c4cn[nH]c4)cc3O)cn1)C2",
    "tested system": "MDR1",
    "reading": 40.7
  },
  {
    "compound": "CN(c1cnc(-c2cc(F)c(-c3cnn(C)c3)cc2O)cn1)[C@H]1C[C@]2(C)CC[C@@](C)(N2)[C@H]1F",
    "tested system": "MDR1",
    "reading": 16.4
  }
]

Now consider the entry below.
Recorded Papp B→A at 120 min, 5 μM for CN(c1cnc(-c2cc(F)c(-c3cnn(C)c3)cc2O)cn1)[C@H]1C[C@@H]2CCC(N2)[C@H]1F (single isomer, unassigned) , please? 18.6

---

System: MDR1 (P-gp)
assay summary: MDCK-MDR1 permeability assay, blood-brain-barrier penetration potential
experimental conditions: dog, MDCK-MDR1, pH 7.4, MDCK-MDR1 Efflux Ratio
Provide the reported efflux ratio at 120 min, 5 μM of each item.

[
  {
    "compound": "O=c1cc(-c2cc(O)c(-c3cnc(N(C4CC4)[C@H]4C[C@@H]5CCC(N5)[C@H]4F)cn3)cc2F)ccn1CF (single isomer, unassigned)",
    "tested system": "MDR1 (P-gp)",
    "efflux ratio at 120 min, 5 μM": 24
  },
  {
    "compound": "COc1cc(-c2ccc(-c3cnc(N(C4CC4)[C@@H]4CC5CC[C@H](N5)[C@@H]4F)cn3)c(O)c2)cc(F)n1 (single isomer, unassigned)",
    "tested system": "MDR1 (P-gp)",
    "efflux ratio at 120 min, 5 μM": 1
  }
]

Take each entry in turn and give its efflux ratio at 120 min, 5 μM.
1. Cn1ccc(-c2ccc(-c3cnc(N(C4CC4)[C@@H]4CC5CC[C@H](N5)[C@@H]4F)cn3)c(O)c2)cc1=O (single isomer, unassigned)
2. CN(c1cnc(-c2ccc(C3=CC(=O)NC3)cc2O)cn1)[C@H]1C[C@@H]2CCC(N2)[C@H]1F (single isomer, unassigned)
3. CN(c1cnc(-c2ccc(-c3cc(=O)n(C)cn3)cc2O)cn1)[C@@H]1CC2CC[C@H](N2)[C@@H]1F (single isomer, unassigned)
4. CN(c1cnc(-c2cc(F)c(-c3cc(=O)n(C)cn3)cc2O)cn1)[C@H]1C[C@@H]2CCC(N2)[C@H]1F (single isomer, unassigned)
5. Cn1ccc(-c2ccc(-c3cnc(N(C4CC4)[C@H]4C[C@@H]5CCC(N5)[C@H]4F)cn3)c(O)c2)cc1=O (single isomer, unassigned)

1: 34; 2: 55; 3: 23; 4: 18; 5: 29

---

Please provide measured MDCK-MDR1: Papp A-B (10^−6, cm/s) for the entries that follow.
Test system: MDR1-MDCK cell monolayers
experimental conditions: dog, MDCK-MDR1, 120 min, 5 μM, pH 7.4

[
  {
    "molecule": "COc1cc(-c2cc(O)c(-c3cnc(N(C)[C@@H]4C[C@@]5(C)CC[C@](C)(N5)[C@@H]4F)cn3)cc2F)cnn1 (single isomer, unassigned)",
    "tested system": "MDR1-MDCK cell monolayers",
    "observable": "MDCK-MDR1: Papp A-B (10^−6, cm/s)",
    "reading": "4.1 10^−6, cm/s"
  },
  {
    "molecule": "Cn1cc(-c2ccc(-c3cnc(N(C4CC4)[C@@H]4CC5CC[C@H](N5)[C@@H]4F)cn3)c(O)c2)cn1 (single isomer, unassigned)",
    "tested system": "MDR1-MDCK cell monolayers",
    "observable": "MDCK-MDR1: Papp A-B (10^−6, cm/s)",
    "reading": "4.55 10^−6, cm/s"
  }
]

Lab note: need MDCK-MDR1: Papp A-B (10^−6, cm/s) with MDR1-MDCK cell monolayers for entry CN(c1cnc(-c2cc(F)c(-c3cnn(C)c3)cc2O)cn1)[C@H]1C[C@@H]2CCC(N2)[C@H]1F (single isomer, unassigned) , please look it up. 4.68 10^−6, cm/s

Where do the numbers come from? From patent US11964971B2.
